Tested on: ATP;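 further: ATP exposure 15 min at 22 °C before imaging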
Experiment: switch fluorescence ratio, 500 uM ATP over buffer (Cy3 cluster intensity, sum of 5 cycles each) (fold (ratio)); higher = stronger signal-on switching upon ATP binding; sequences stand for … in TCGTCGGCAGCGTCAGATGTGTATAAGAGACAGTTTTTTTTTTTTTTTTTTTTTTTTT…TC
Conditions: aptamer strand: ATP DNA aptamer (quencher-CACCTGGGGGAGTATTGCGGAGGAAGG + anchor), 100 nM annealed; ATP concentration: 500 uM
Parameter threshold = 1. Response is 1 when switch fluorescence ratio meets or exceeds it, else -1.

| orderedResidues | group |
| --- | --- |
| GGCAATAGGG | 1 |
| AGGTTGTACT | -1 |
| TGCGGGTTTC | 1 |
| AAATTTCATA | 1 |
| ACAGTGGTCG | 1 |
| TCTGAGCAAG | 1 |
| GTTTAACGGG | 1 |
| GATTTGACG | 1 |
| ACCAGGTCGT | 1 |
| GCATAAGCTC | 1 |

Let us examine a further case.
Reported switch fluorescence ratio reaches at least 1 for `TTTCGGGGTG` ? 1

----------
Tested on: ATP;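 further: ATP exposure 15 min at 22 °C before imaging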
Experiment: switch fluorescence ratio, 500 uM ATP over buffer (Cy3 cluster intensity, sum of 5 cycles each) (fold (ratio)); higher = stronger signal-on switching upon ATP binding; sequences stand for … in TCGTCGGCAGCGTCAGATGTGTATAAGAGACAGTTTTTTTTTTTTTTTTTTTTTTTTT…TC
Details: aptamer strand: ATP DNA aptamer (quencher-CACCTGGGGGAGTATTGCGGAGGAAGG + anchor), 100 nM annealed; ATP concentration: 500 uM
Recorded switch fluorescence ratio for the following sequences

Sample records with switch fluorescence ratio:
| orderedResidues | switch fluorescence ratio |
| --- | --- |
| AGGGTGTAGA | 1.02 |
| ATTGGGTATG | 0.998 |

For `TTTTCGGTGC` , what is its reported switch fluorescence ratio? 1.06

----------
System: ATP;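 further: ATP exposure 15 min at 22 °C before imaging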
Assay: switch fluorescence ratio, 500 uM ATP over buffer (Cy3 cluster intensity, sum of 5 cycles each) (fold (ratio)); higher = stronger signal-on switching upon ATP binding; sequences stand for … in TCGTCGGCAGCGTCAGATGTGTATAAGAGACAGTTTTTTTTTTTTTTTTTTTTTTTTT…TC
Settings: aptamer strand: ATP DNA aptamer (quencher-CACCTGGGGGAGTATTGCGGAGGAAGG + anchor), 100 nM annealed; ATP concentration: 500 uM
observationType: switch fluorescence ratio
Returns: the value as a bare number; no unit string appended.

Sample records with switch fluorescence ratio:
| orderedResidues | switch fluorescence ratio |
| --- | --- |
| GATACTGCGC | 1.16 |
| AGGTATCCAC | 1.03 |
| GCGCGAAGGA | 1.03 |
| ATGGCGGATG | 1.01 |
| CCGGTTGAGA | 1 |

For `CGAATATTGA` , what is its reported switch fluorescence ratio? 0.959

For `TCGTCTAATG` , what is its reported switch fluorescence ratio? 0.978

For `CGATTTTGGA` , what is its reported switch fluorescence ratio? 0.994

----------
Tested on: ATP;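 further: ATP exposure 15 min at 22 °C before imaging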
Test: switch fluorescence ratio, 500 uM ATP over buffer (Cy3 cluster intensity, sum of 5 cycles each) (fold (ratio)); higher = stronger signal-on switching upon ATP binding; sequences stand for … in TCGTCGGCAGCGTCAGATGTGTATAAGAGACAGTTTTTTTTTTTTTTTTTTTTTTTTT…TC
Conditions: aptamer strand: ATP DNA aptamer (quencher-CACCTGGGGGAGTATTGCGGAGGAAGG + anchor), 100 nM annealed; ATP concentration: 500 uM
Parameter threshold = 1. Response is 1.0 when switch fluorescence ratio meets or exceeds it, else 0.0.

| orderedResidues | group |
| --- | --- |
| GGACGGAGGT | 0.0 |
| GATACAGTGC | 1.0 |
| TTGAGGCAGT | 1.0 |
| TTGCTGAGAC | 1.0 |
| GAAAGGGCTG | 1.0 |
| TCAGATATAC | 1.0 |
| TTGGTCGTTT | 0.0 |
| CGGTATGAGG | 0.0 |
| ACACCTAGGC | 1.0 |
| ATCTCAATTT | 0.0 |

Reported switch fluorescence ratio reaches at least 1 for `GAGGTAGGCC` ? 1.0

Reported switch fluorescence ratio reaches at least 1 for `CCTGGGCAAG` ? 1.0

Reported switch fluorescence ratio reaches at least 1 for `CGTGGGGAGC` ? 1.0

Reported switch fluorescence ratio reaches at least 1 for `CCAGGGTTTT` ? 1.0
